System: Enterovirus
Assay: Ratio of CC50 to that of IC50 against human enterovirus EV71-4643 strain
Type: functional, Enterovirus A71
assayReadout: Selectivity index

Consider the following illustrative entries.
>>> df
                                   compound  measuredtarget       assayreadout  result
0  CC(CCOc1ccc(-c2ccc(Cl)cc2)cc1)CCN1CCN(c2ccncc2)C1=O (configuration not stated)     Enterovirus  Selectivity index   >2688
1  CCCc1nc(-c2ccc(OCCC(C)CCN3CCN(c4ccncc4)C3=O)cc2)no1 (configuration not stated)     Enterovirus  Selectivity index    >657
2  Cc1nc(-c2ccc(OCCC(C)CCN3CCN(c4ccncc4)C3=O)cc2)no1 (configuration not stated)     Enterovirus  Selectivity index   >6944
3  CC(CCOc1ccc(-c2nnn(C)n2)cc1)CCN1CCN(c2ccncc2)C1=O (configuration not stated)     Enterovirus  Selectivity index   >8928
4  CCc1nc(-c2ccc(OCCC(C)CCN3CCN(c4ccncc4)C3=O)cc2)no1 (configuration not stated)     Enterovirus  Selectivity index  >50000

So, CC(CCOc1ccc(-c2noc(C(F)(F)F)n2)cc1)CCN1CCN(c2ccncc2)C1=O (configuration not stated) ? Its Selectivity index was >17857

response.value for CCn1nnc(-c2ccc(OCCC(C)CCN3CCN(c4ccncc4)C3=O)cc2)n1 (configuration not stated) (field: Selectivity index) = >13888
